- measured.on: TYK2 (Homo sapiens)
- Sequence (P29597 whole entry): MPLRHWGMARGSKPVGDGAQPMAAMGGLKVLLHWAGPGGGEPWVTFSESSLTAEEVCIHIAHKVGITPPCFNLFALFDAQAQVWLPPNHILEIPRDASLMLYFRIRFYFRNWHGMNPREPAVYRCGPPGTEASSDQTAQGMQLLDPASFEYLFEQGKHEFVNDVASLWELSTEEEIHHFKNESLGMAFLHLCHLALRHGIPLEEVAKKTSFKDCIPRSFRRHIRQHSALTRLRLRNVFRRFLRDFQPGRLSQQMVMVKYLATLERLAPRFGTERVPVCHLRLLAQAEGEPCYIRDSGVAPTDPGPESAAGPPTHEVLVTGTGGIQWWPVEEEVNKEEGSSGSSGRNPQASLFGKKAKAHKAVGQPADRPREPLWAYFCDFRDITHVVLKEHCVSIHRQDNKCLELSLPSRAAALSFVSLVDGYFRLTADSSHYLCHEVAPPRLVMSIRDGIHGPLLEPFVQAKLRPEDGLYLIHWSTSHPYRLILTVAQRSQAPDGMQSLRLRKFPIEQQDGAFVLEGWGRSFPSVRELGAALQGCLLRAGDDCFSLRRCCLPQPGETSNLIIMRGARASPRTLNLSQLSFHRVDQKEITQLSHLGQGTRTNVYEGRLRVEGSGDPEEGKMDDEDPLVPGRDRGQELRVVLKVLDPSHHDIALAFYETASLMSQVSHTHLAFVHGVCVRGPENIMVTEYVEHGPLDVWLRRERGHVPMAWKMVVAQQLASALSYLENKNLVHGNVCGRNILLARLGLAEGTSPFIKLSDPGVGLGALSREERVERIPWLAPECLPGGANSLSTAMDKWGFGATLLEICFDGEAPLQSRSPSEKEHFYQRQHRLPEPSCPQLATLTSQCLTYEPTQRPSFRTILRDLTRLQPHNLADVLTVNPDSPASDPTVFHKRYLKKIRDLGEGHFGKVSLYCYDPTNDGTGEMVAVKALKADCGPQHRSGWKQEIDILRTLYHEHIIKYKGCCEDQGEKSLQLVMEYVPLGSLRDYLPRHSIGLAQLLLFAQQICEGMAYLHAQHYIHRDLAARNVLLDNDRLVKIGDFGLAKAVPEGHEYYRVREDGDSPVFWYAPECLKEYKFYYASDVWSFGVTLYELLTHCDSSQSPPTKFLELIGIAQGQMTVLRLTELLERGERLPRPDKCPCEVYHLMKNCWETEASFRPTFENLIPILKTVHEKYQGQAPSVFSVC
- experimental.details: TYK2 kinase inhibition (Table A1)
- Format: biochemical
- condition: Table D1
Counter-ions that a name gives are not always drawn.
Give IC50 for every item shown.

**Q:** Please give the measured IC50 for this compound: O=C(COc1ccc2cc1CCc1cncc(c1)Nc1ncc(Cl)c(n1)N2)N1CCN(c2cccc(Cl)n2)CC1 [Example D240, tris(trifluoroacetate)]
**A:** > 400 nM

**Q:** Please give the measured IC50 for this compound: O=C(c1cnccn1)N1CCC(CCOc2ccc3cc2CCc2cncc(c2)Nc2ncc(Cl)c(n2)N3)CC1 [Example D177, tris(trifluoroacetate)]
**A:** > 400 nM

**Q:** Please give the measured IC50 for this compound: O=C(COc1ccc2cc1CCc1cncc(c1)Nc1ncc(Cl)c(n1)N2)N1CCC(c2nc(-c3cccs3)no2)CC1 [Example D258, bis(trifluoroacetate)]
**A:** > 400 nM

**Q:** Please give the measured IC50 for this compound: Clc1cnc2nc1Nc1cccc(c1)OCc1cccc(c1)N2 [Example D7, trifluoroacetate]
**A:** > 100 nM

**Q:** Please give the measured IC50 for this compound: O=C(COc1ccc2cc1CCc1cncc(c1)Nc1ncc(Cl)c(n1)N2)N1CCN(c2ncccn2)CC1 [Example D233, tris(trifluoroacetate)]
**A:** > 400 nM

**Q:** Please give the measured IC50 for this compound: N#Cc1ccccc1S(=O)(=O)N1CCC(CCOc2ccc3cc2CCc2cncc(c2)Nc2ncc(Cl)c(n2)N3)CC1
**A:** > 400 nM

**Q:** Please give the measured IC50 for this compound: COc1ccccc1N1CCN(C(=O)COc2ccc3cc2CCc2cncc(c2)Nc2ncc(Cl)c(n2)N3)CC1 [Example D241, tris(trifluoroacetate)]
**A:** > 400 nM

**Q:** Please give the measured IC50 for this compound: O=C(Nc1cccs1)N1CCC(CCOc2ccc3cc2CCc2cncc(c2)Nc2ncc(Cl)c(n2)N3)CC1 [Example D167, bis(trifluoroacetate)]
**A:** > 400 nM

**Q:** Please give the measured IC50 for this compound: O=C(COc1ccc2cc1CCc1cncc(c1)Nc1ncc(Cl)c(n1)N2)N1CCN(c2cc(Cl)cc(Cl)n2)CC1 [Example D247, tris(trifluoroacetate)]
**A:** > 400 nM

**Q:** Please give the measured IC50 for this compound: Cc1cc(C(=O)N2CCN(C(=O)COc3ccc4cc3CCc3cncc(c3)Nc3ncc(Cl)c(n3)N4)CC2)no1 [Example D251, bis(trifluoroacetate)]
**A:** > 400 nM

**Q:** Please give the measured IC50 for this compound: CC1(C)Cc2cccc(NC(=O)N3CCC(CCOc4ccc5cc4CCc4cncc(c4)Nc4ncc(Cl)c(n4)N5)CC3)c2O1 [Example D175, bis(trifluoroacetate)]
**A:** > 400 nM
